Every entry's value here was drawn from PubChem BioAssay AID617.

Can you tell me IC50 for the items I'm about to list?
- System: E. coli BW25113 ΔtolC growth inhibition, OD615
- EXPERIMENT_SUMMARY: growth inhibitors of E. coli tolC mutant, dose response, strain BW25113 ΔtolC::kan (AID 617);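 further: growth read after 20 h at 37 °C with compound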

Prompt: Provide IC50 value for the following molecule: O=C(NCc1ccco1)C(c1cccs1)N(C(=O)C1COc2ccccc2O1)c1cccc(O)c1 (configuration not stated)
Completion: 11.8 µM

Prompt: Provide IC50 value for the following molecule: CCCCN1C(=O)C2ON(c3ccccc3C)C(c3ccco3)C2C1=O (configuration not stated)
Completion: 14.4 µM

Prompt: Provide IC50 value for the following molecule: CCCCn1c(=O)n(Cc2cccc(F)c2)c(=O)c2c1ncn2Cc1ccco1
Completion: 14.8 µM

Prompt: Provide IC50 value for the following molecule: O=C(CSc1n[nH]c(-c2ccco2)n1)N1c2ccccc2Sc2ccccc21
Completion: 9.51 µM

Prompt: Provide IC50 value for the following molecule: Cc1ccc(-n2c(=O)[nH]cc(C(=O)Nc3ccc4c(c3)OCCO4)c2=O)cc1C
Completion: 26.9 µM

Prompt: Provide IC50 value for the following molecule: CCCc1cc(C(=O)Cc2ccc(C(=O)OCC)o2)c(O)cc1O
Completion: 18.6 µM

Prompt: Provide IC50 value for the following molecule: COc1ccc(NS(=O)(=O)c2cc(C)ccc2NC(=O)c2cc(C)oc2C)cc1
Completion: 58.6 µM
